Recorded values, source patent US8030498B2.

system: rice (Oryza sativa L.); assay: Test Example 1: foliar treatment, growth inhibition rate, rice; format: in vivo; conditions: 31 g/ha active ingredient, visually observed 17th to 23rd day after application
Growth inhibition rate (%) Rice vs 70%: at or above is fulfilled, below is not fulfilled.

Some solved entries appear below for comparison.
C=CCSC(=O)Oc1c(C(=O)c2ccc(S(C)(=O)=O)c(C(=O)OC)c2C)cnn1CC :: fulfilled
CCSC(=O)Oc1c(C(=O)c2ccc(S(C)(=O)=O)c(OCC(C)OC)c2C)cnn1C (centres unmarked) :: fulfilled
CCOC(=O)COc1c(S(C)(=O)=O)ccc(C(=O)c2cnn(C)c2OC(=O)SCC)c1C :: not fulfilled

Ask | Hi, just wondering whether CCSC(=O)Oc1c(C(=O)c2ccc(S(C)(=O)=O)c(OC(C)COC)c2C)cnn1C (centres unmarked) shows Growth inhibition rate (%) Rice of 70% or higher.
Reply | fulfilled

Ask | Okay, and "CCCOc1c(S(C)(=O)=O)ccc(C(=O)c2cnn(CC)c2OC(=O)SCC)c1C" ?
Reply | not fulfilled

Ask | Now consider "CCOc1c(S(C)(=O)=O)ccc(C(=O)c2cnn(CC)c2OC(=O)SCC)c1C" and answer again.
Reply | fulfilled

Ask | Do the same for "CCSC(=O)Oc1c(C(=O)c2ccc(S(C)(=O)=O)c(OCCCOC)c2C)cnn1C" please
Reply | fulfilled

Ask | Same question for "CCCSC(=O)Oc1c(C(=O)c2ccc(S(C)(=O)=O)c(OCCOC)c2C)cnn1CC" please.
Reply | fulfilled

Ask | Consider next the compound "COC(=O)c1c(S(C)(=O)=O)ccc(C(=O)c2cnn(C)c2OC(=O)SC(C)(C)C)c1C" in the same way.
Reply | not fulfilled

Ask | Same thing, different compound: "CCSC(=O)Oc1c(C(=O)c2ccc(S(C)(=O)=O)c(Cl)c2C)cnn1CC"
Reply | not fulfilled

Ask | Can you handle "COCc1c(S(C)(=O)=O)ccc(C(=O)c2cnn(C)c2OC(=O)SC)c1Cl" next?
Reply | fulfilled

Ask | What do we get for "CCSC(=O)Oc1c(C(=O)c2ccc(S(C)(=O)=O)c(CCCOC)c2C)cnn1C" ?
Reply | fulfilled

Ask | Entry "CCSC(=O)Oc1c(C(=O)c2ccc(S(C)(=O)=O)c(C(=O)OC)c2Cl)cnn1C" please
Reply | fulfilled

###

Below is a list of entries, each paired with its recorded inhibition at 250 g/ha value.
tested on: barnyardgrass; assay: Test Example 2: soil application on the day after sowing, growth inhibition rate, barnyardgrass; format: in vivo, Echinochloa crus-galli L.; conditions: Echinochloa crus-galli, 250 g/ha active ingredient, observed on 19th to 24th day
Report the value in % with no unit label.

CCSC(=O)Oc1c(C(=O)c2ccc(S(C)(=O)=O)c(OCC(OC)OC)c2C)cnn1C :: 95
CCSC(=O)Oc1c(C(=O)c2ccc(S(C)(=O)=O)c(OCCOC)c2C)cnn1CC :: 100
CCSC(=O)Oc1c(C(=O)c2ccc(S(C)(=O)=O)c(OCCOC)c2C)cnn1C :: 100
CCSC(=O)Oc1c(C(=O)c2ccc(S(C)(=O)=O)c(C(=O)OC)c2C)cnn1C :: 100
CCSC(=O)Oc1c(C(=O)c2ccc(S(C)(=O)=O)c(OC)c2C)cnn1C :: 90
CCSC(=O)Oc1c(C(=O)c2ccc(S(C)(=O)=O)c(C3=NOCC3)c2C)cnn1C :: 70
CCSC(=O)Oc1c(C(=O)c2ccc(S(C)(=O)=O)c(OC(F)F)c2C)cnn1C :: 90

Kindly review the next compound as well.
Ask | Please tell me: inhibition at 250 g/ha of "CCSC(=O)Oc1c(C(=O)c2ccc(S(C)(=O)=O)c(C(=O)OC)c2C)cnn1CC" , system barnyardgrass?
Reply | 100

###

test system: crabgrass (Digitaria sanguinalis L.); experiment: Test Example 1: foliar treatment, growth inhibition rate, crabgrass; assay type: in vivo; details: 63 g/ha active ingredient, visually observed 17th to 23rd day after application
Quantity Name: Growth inhibition rate (%) Crabgrass
Numeric answer only, unit % assumed.

Consider the reported Growth inhibition rate (%) Crabgrass for these compounds:
CCSC(=O)Oc1c(C(=O)c2ccc(S(C)(=O)=O)c(CSC#N)c2C)cnn1C :: 70
CCSC(=O)Oc1c(C(=O)c2ccc(S(C)(=O)=O)c(C=CC#N)c2C)cnn1C :: 100
CCSC(=O)Oc1c(C(=O)c2ccc(S(C)(=O)=O)c(SC)c2Cl)cnn1C :: 50
CCSC(=O)Oc1c(C(=O)c2ccc(S(C)(=O)=O)c(CCC#N)c2C)cnn1C :: 100
CCSC(=O)Oc1c(C(=O)c2ccc(S(C)(=O)=O)c(CC3OCCO3)c2C)cnn1C :: 98
CCSC(=O)Oc1c(C(=O)c2ccc(S(C)(=O)=O)c(CC(N)=S)c2C)cnn1C :: 95

Ask | # get_value(readout='Growth inhibition rate (%) Crabgrass', item= CCC(C)SC(=O)Oc1c(C(=O)c2ccc(S(C)(=O)=O)c(C(=O)OC)c2Cl)cnn1CC (centres unmarked) )
Reply | 60

Ask | Try this compound too: "CCSC(=O)Oc1c(C(=O)c2ccc(S(C)(=O)=O)c(S(C)(=O)=O)c2Cl)cnn1C"
Reply | 60

###

Growth inhibition rate (%) Wheat for assorted compounds
System: wheat
Assay: Test Example 2: soil application on the day after sowing, growth inhibition rate, wheat
Format: in vivo, Triticum spp.
Conditions: 250 g/ha active ingredient, observed on 19th to 24th day
Source text: Upland field soil was put into a 1/170,000 hectare pot, and seeds of various plants (barnyardgrass, crabgrass, greenfoxtail, redroot pigweed, prickly sida, velvetleaf, rice, wheat, corn and soybean) were sown. […]
Mention the unit after the number when you answer.

Past entries and their recorded results:
COC(=O)c1c(S(C)(=O)=O)ccc(C(=O)c2cnn(C)c2OC(=O)SCc2ccccc2)c1C :: 0%
CCCSC(=O)Oc1c(C(=O)c2ccc(S(C)(=O)=O)c(C(=O)OC)c2C)cnn1CC :: 0%
CCC(C)SC(=O)Oc1c(C(=O)c2ccc(S(C)(=O)=O)c(C(=O)OC)c2C)cnn1C (stereo not shown) :: 0%

Let us examine a further case.
Ask | Notebook: pull reported Growth inhibition rate (%) Wheat for wheat, entry "CCSC(=O)Oc1c(C(=O)c2ccc(S(C)(=O)=O)c(C(=O)OC)c2Cl)cnn1C"
Reply | 10%

###

tested on: velvetleaf; test: Test Example 2: soil application on the day after sowing, growth inhibition rate, velvetleaf; type: in vivo, Abutilon theophrasti MEDIC.; details: 250 g/ha active ingredient, observed on 19th to 24th day
Quantity Name: Growth inhibition rate (%) Velvetleaf
Phrase the answer as number then unit, nothing more needed.

# example entries with known answers
CCn1ncc(C(=O)c2ccc(S(C)(=O)=O)c(C(=O)OC)c2C)c1OC(=O)SC(C)(C)C :: 70%
CCCSC(=O)Oc1c(C(=O)c2ccc(S(C)(=O)=O)c(C(=O)OC)c2C)cnn1CC :: 100%

Ask | Requested read-out: Growth inhibition rate (%) Velvetleaf. Entry: "CCCOc1c(S(C)(=O)=O)ccc(C(=O)c2cnn(CC)c2OC(=O)SCC)c1C"
Reply | 60%

Ask | Would you mind doing CCSC(=O)Oc1c(C(=O)c2ccc(S(C)(=O)=O)c(OCC(C)OC)c2C)cnn1C (stereo not shown) as well?
Reply | 100%

###

System: barnyardgrass (Echinochloa crus-galli L.)
Experiment: Test Example 1: foliar treatment, growth inhibition rate, barnyardgrass
Type: in vivo
Settings: 31 g/ha active ingredient, visually observed 17th to 23rd day after application
Source text: Upland field soil was put into a 1/170,000 hectare pot, and seeds of various plants were sown. […]
Quantity Name: Growth inhibition rate (%) Barnyardgrass
Report the value in % with no unit label.

CCCOC(=O)c1c(S(C)(=O)=O)ccc(C(=O)c2cnn(CC)c2OC(=O)SCC)c1Cl [compound 60] :: 95

Ask | Recorded Growth inhibition rate (%) Barnyardgrass for CCSC(=O)Oc1c(C(=O)c2ccc(S(C)(=O)=O)c(COC3CCOC3)c2C)cnn1C (stereo not shown) [compound 223] , please?
Reply | 100

Ask | Same again, this time with CCn1ncc(C(=O)c2ccc(S(C)(=O)=O)c(C(=O)OC)c2Cl)c1OC(=O)SC [compound 97]
Reply | 100

Ask | Repeat for the following molecule: CCOC(=O)c1c(S(C)(=O)=O)ccc(C(=O)c2cnn(CC)c2OC(=O)SC)c1C [compound 62]
Reply | 100

###

tested on: wheat; assay: Test Example 2: soil application on the day after sowing, growth inhibition rate, wheat; format: in vivo, Triticum spp.; details: 250 g/ha active ingredient, observed on 19th to 24th day
Quantity Name: Growth inhibition rate (%) Wheat
Response body: numeric value in %, unit text excluded.

Known results for compounds:
CCSC(=O)Oc1c(C(=O)c2ccc(S(C)(=O)=O)c(CC#N)c2C)cnn1C :: 0
CCC(C)SC(=O)Oc1c(C(=O)c2ccc(S(C)(=O)=O)c(C(=O)OC)c2Cl)cnn1CC (centres unmarked) :: 0
CCSC(=O)Oc1c(C(=O)c2ccc(S(C)(=O)=O)c(OCCSC)c2C)cnn1C :: 0
CCSC(=O)Oc1c(C(=O)c2ccc(S(C)(=O)=O)c(SC)c2Cl)cnn1C :: 0

Ask | Which Growth inhibition rate (%) Wheat reading was recorded for the compound "CCOC(=O)c1c(S(C)(=O)=O)ccc(C(=O)c2cnn(CC)c2OC(=O)SCC)c1C" ?
Reply | 30

Ask | Another compound to look at: "CCSC(=O)Oc1c(C(=O)c2ccc(S(C)(=O)=O)c(COCC(F)(F)F)c2C)cnn1C"
Reply | 0

Ask | Same question, "COC(=O)c1c(S(C)(=O)=O)ccc(C(=O)c2cnn(C)c2OC(=O)SC(C)C)c1C" this time
Reply | 0

Ask | Quick one: "CCOC(=O)COc1c(S(C)(=O)=O)ccc(C(=O)c2cnn(C)c2OC(=O)SCC)c1C"
Reply | 0
